- experimental protocol: Selectivity ratio of Ki for TTK to Ki for LRRK2
Okay, here is how we bin by Ratio Ki: LOW (below 50), MID (50 to below 100), HIGH (100 or more)

- compound string: "CCNc1nc(Nc2cc(OC)c(C(=O)N3CCOCC3)cc2Cl)ncc1C(F)(F)F"
  category label: "MID"

Which category fits this record: CNc1nc(Nc2ccc(-c3nnnn3C)cc2Cl)ncc1C(F)(F)F
LOW

Classify this compound: CNc1nc(Nc2cc(OC)c(C(=O)N3CCOCC3)cc2Cl)ncc1C(F)(F)F
HIGH

Category lookup for the compound CNc1nc(Nc2ccc(C(=O)N3CCOCC3)c(F)c2OC)ncc1C(F)(F)F
LOW

Classify this compound: CNc1nc(Nc2cc(OC)c(C(=O)N3CCOCC3)cc2OC)ncc1C(F)(F)F
HIGH

Pick a category. Item: CNc1nc(Nc2cc(C)c(C(=O)N3CCOCC3)cc2OC)ncc1C(F)(F)F
HIGH

Categorize the following entry: CNc1nc(Nc2cc(Cl)c(C(=O)N3CCOCC3)cc2OC)ncc1C(F)(F)F
MID

Which band does COc1cc(C(=O)N2CCOCC2)c(F)cc1Nc1ncc(C(F)(F)F)c(NC2CC2)n1 fall in?
HIGH

Band for the recorded Ratio Ki of CCNc1nc(Nc2cc3c(cc2OC)C(=O)N(CC(C)(C)O)C3)ncc1C(F)(F)F ?
LOW

Which class holds CNc1nc(Nc2cc(OC)c(C(=O)N3CCOCC3)cc2F)ncc1C(F)(F)F ?
HIGH

---

- Tested on: MDCK
- experimental protocol: Efflux ratio of permeability from basolateral to apical over apical to basolateral side in MDCK cells expressing human MDR1
- run conditions: dog
Exam item: assign class 1 to entries whose Ratio is below 1 and class 0 to entries at or above 1. Note that a value of exactly 1 receives class 0.

Example results:
- compound string: "CNc1nc(Nc2cc(Cl)c(C(=O)N3CCOCC3)cc2OC)ncc1C(F)(F)F"
  tested target: "MDCK"
  category label: "class 0"
- compound string: "CNc1nc(Nc2cnc(C3CCOCC3)cc2OC)ncc1C(F)(F)F"
  tested target: "MDCK"
  category label: "class 1"
- compound string: "CNc1nc(Nc2cc(OC)c(C(=O)N3CCOCC3)cc2OC)ncc1C(F)(F)F"
  tested target: "MDCK"
  category label: "class 0"

Hi there! Is Ratio for CCNc1nc(Nc2cc(F)c(C(=O)NCC(C)(C)O)cc2OC)ncc1C(F)(F)F below 1, do you know?
class 1

Please state whether Ratio is below 1 for COc1cc(C(=O)N2CCOCC2)ccc1Nc1ncc(Br)c(OC)n1
class 0

# strict comparison: is reported Ratio < 1? input = CNc1nc(Nc2ccc(C(=O)N3CCOCC3)cc2OC)ncc1C#N
class 0

Input CCNc1nc(Nc2cc3c(cc2OC)C(=O)N(CC(C)(C)O)C3)ncc1C(F)(F)F ; condition: Ratio strictly below 1. Does it hold?
class 0

Consider CNc1nc(Nc2ccc(C(=O)N3CCOCC3)cc2OC)ncc1C(F)(F)F . Does its Ratio lie strictly below 1?
class 0

I wonder whether CCNc1nc(Nc2cc(OC)c(C(=O)N3CCOCC3)cc2Cl)ncc1C(F)(F)F has Ratio below 1. Can you tell?
class 0

Regarding COc1cc(C(=O)N2CCOCC2)c(F)cc1Nc1ncc(C(F)(F)F)c(NC2CC2)n1 , kindly confirm whether its Ratio is beneath 1.
class 0

---

Listing of entries alongside the reported Ratio Ki.
- experimental protocol: Selectivity ratio of Ki for TTK to Ki for LRRK2
In your answer, state the number alone without any accompanying words.

Below, 2 compounds whose answers are already recorded.
- compound string: "CCNc1nc(Nc2cnc(C(=O)N3CCOCC3)cc2OC)ncc1C(F)(F)F"
  outcome measure: "Ratio Ki"
  numeric readout: 63
- compound string: "CNc1nc(Nc2cnc(C3CCOCC3)cc2OC)ncc1C(F)(F)F"
  outcome measure: "Ratio Ki"
  numeric readout: 11

In one line, give reported Ratio Ki of the entry CNc1nc(Nc2ccc(C(=O)N3CCOCC3)cc2OC)ncc1C(F)(F)F .
13

---

List of Ratio values.
- Tested on: MDCK
- experimental protocol: Efflux ratio of permeability from basolateral to apical over apical to basolateral side in MDCK cells expressing human MDR1
- run conditions: dog
API note: the answer field is a bare number with no unit suffix.

Use these answered entries as a reference point.
- compound string: "COc1cc(C(=O)N2CCOCC2)ccc1Nc1ncc(Cl)c(OC)n1"
  Ratio: 0.8
- compound string: "CNc1nc(Nc2cc(OC)c(C(=O)N3CCOCC3)cc2Cl)ncc1C(F)(F)F"
  Ratio: 1.1
- compound string: "[2H]C1([2H])OC([2H])([2H])C([2H])([2H])N(C(=O)c2cc(Cl)c(Nc3ncc(C(F)(F)F)c(NCC)n3)cc2OC)C1([2H])[2H]"
  Ratio: 1.3
- compound string: "CNc1nc(Nc2ccc(-c3nnnn3C)cc2Cl)ncc1C(F)(F)F"
  Ratio: 0.7
- compound string: "CCNc1nc(Nc2cnc(C(=O)N3CCOCC3)cc2OC)ncc1C(F)(F)F"
  Ratio: 2
- compound string: "CNc1nc(Nc2cc(F)c(C(=O)N3CCOCC3)cc2OC)ncc1C(F)(F)F"
  Ratio: 2.2

Hello, please tell me recorded Ratio for this one: CNc1nc(Nc2cc(F)c(S(C)(=O)=O)cc2OC)ncc1C(F)(F)F
1.3

Quickly give me recorded Ratio for CCNc1nc(Nc2cc(F)c(C(=O)N3CCOCC3)cc2OC)ncc1C(F)(F)F
0.9
